- TESTED TARGET: NS3-NS4A protease (Hepatitis C virus genotype 1a)
- Construct: Recombinant E. coli or Baculovirus full-length NS3 was diluted to 3.33 μM with assay buffer; made in house; host or cells: E. coli or baculovirus (BV) system
- PROTOCOL NOTES: NS3-NS4A protease assay (NS3 inhibition assay, RETS1 substrate), Section B
- Format: biochemical
- CONDITION DETAILS: read-out: NS3-NS4A IC50
pIC50: −log10 of the molar value.
MEASURED PARAMETER: pIC50

Observed pIC50 on NS3-NS4A protease (Hepatitis C virus genotype 1a) for "CC(C)(C)OC(=O)N[C@H]1CCCCC/C=C\[C@@H]2C[C@@]2(C(=O)O)NC(=O)[C@@H]2C[C@@H](OC(=O)N3Cc4ccccc4C4(CCC4)C3)CN2C1=O" , please.
> 6.00

# get_value(readout= pIC50, system= NS3-NS4A protease (Hepatitis C virus genotype 1a)) for "CC(C)(C)OC(=O)N[C@H]1CCCCC/C=C\[C@@H]2C[C@@]2(C(=O)NS(=O)(=O)C2CC2)NC(=O)[C@@H]2C[C@@H](OC(=O)N3Cc4ccc(OCCn5ccnc5)cc4C3)CN2C1=O"
> 7.00

Requested read-out pIC50, target or system NS3-NS4A protease (Hepatitis C virus genotype 1a), entry "O=C(N[C@H]1CCCCC/C=C\[C@@H]2C[C@@]2(C(=O)NS(=O)(=O)C2CC2)NC(=O)[C@@H]2C[C@@H](OC(=O)N3Cc4ccccc4C3)CN2C1=O)O[C@@H]1CCOC1"
> 7.00

Param readout= pIC50; system= NS3-NS4A protease (Hepatitis C virus genotype 1a); entry= "CC(C)(C)OC(=O)N[C@H]1CCCCC/C=C\[C@@H]2C[C@@]2(C(=O)O)NC(=O)[C@@H]2C[C@@H](OC(=O)N3CCc4cc(F)ccc4C3)CN2C1=O" ; returns value.
> 6.00

For the record "O=C(N[C@H]1CCCCC/C=C\[C@@H]2C[C@@]2(C(=O)NS(=O)(=O)C2CC2)NC(=O)[C@@H]2C[C@@H](OC(=O)N3Cc4ccc(Cl)cc4C3)CN2C1=O)O[C@H]1CCOC1" , what value of pIC50 is listed for NS3-NS4A protease (Hepatitis C virus genotype 1a)?
> 7.00

====

- TESTED TARGET: NS3-NS4A protease (Hepatitis C virus genotype 1a)
- Construct: Recombinant E. coli or Baculovirus full-length NS3 was diluted to 3.33 μM with assay buffer; made in house; host or cells: E. coli or baculovirus (BV) system
- PROTOCOL NOTES: NS3-NS4A protease assay (NS3 inhibition assay, RETS1 substrate), Section B
- Format: biochemical
- CONDITION DETAILS: read-out: NS3-NS4A IC50
IC50 values by entry

# annotated cases, reported IC50 shown
{"SMILES TEXT": "CC(C)(C)OC(=O)N[C@H]1CCCCC/C=C\\[C@@H]2C[C@@]2(C(=O)NS(=O)(=O)C2CC2)NC(=O)[C@@H]2C[C@@H](OC(=O)N3Cc4ccc(OCCn5cccn5)cc4C3)CN2C1=O", "EXPERIMENTAL VALUE": "< 100 nM"}
{"SMILES TEXT": "CC(C)(C)OC(=O)N[C@H]1CCCCCC=C[C@@H]2C[C@@]2(C(=O)O)NC(=O)[C@@H]2C[C@@H](OC(=O)N3Cc4ccccc4C(C)(C)C3)CN2C1=O", "EXPERIMENTAL VALUE": "< 1000 nM"}

Proceeding to the next compound to report its IC50.
Suppose we examine the compound "COc1ccc(CC(=O)N[C@H]2CCCCC/C=C\[C@@H]3C[C@@]3(C(=O)NS(=O)(=O)C3CC3)NC(=O)[C@@H]3C[C@@H](OC(=O)N4Cc5cccc(F)c5C4)CN3C2=O)cc1" ; what IC50 value has been reported?
< 100 nM

====

- TESTED TARGET: NS3-NS4A protease (Hepatitis C virus genotype 1a, UniProt P27958)
- Construct: Recombinant E. coli or Baculovirus full-length NS3 was diluted to 3.33 μM with assay buffer; made in house; host or cells: E. coli or baculovirus (BV) system
- Sequence (P27958 1027-1657): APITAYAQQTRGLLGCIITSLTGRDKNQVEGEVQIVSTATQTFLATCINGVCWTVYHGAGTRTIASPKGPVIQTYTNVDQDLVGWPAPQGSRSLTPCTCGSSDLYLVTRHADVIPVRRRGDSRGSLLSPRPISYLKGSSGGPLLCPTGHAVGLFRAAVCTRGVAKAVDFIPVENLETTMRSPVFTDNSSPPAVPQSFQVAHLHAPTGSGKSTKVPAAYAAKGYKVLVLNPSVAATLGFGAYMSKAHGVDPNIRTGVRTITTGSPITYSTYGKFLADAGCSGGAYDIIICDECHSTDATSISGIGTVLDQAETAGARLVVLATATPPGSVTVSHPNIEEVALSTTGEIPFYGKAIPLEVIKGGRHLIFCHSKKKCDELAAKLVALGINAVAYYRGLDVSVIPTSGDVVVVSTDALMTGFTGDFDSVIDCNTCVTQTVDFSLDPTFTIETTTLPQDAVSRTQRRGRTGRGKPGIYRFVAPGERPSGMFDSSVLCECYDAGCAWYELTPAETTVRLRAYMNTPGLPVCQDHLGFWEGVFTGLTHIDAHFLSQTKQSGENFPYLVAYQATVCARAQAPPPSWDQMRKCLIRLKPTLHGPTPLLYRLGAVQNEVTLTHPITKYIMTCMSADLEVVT
- PROTOCOL NOTES: NS3-NS4A protease assay (NS3 inhibition assay, RETS1 substrate), Section B
- Type: biochemical
- CONDITION DETAILS: read-out: NS3-NS4A IC50
- Description: NS3 complex formation with NS4A-2 Recombinant E. coli or Baculovirus full-length NS3 was diluted to 3.33 μM with assay buffer and the material transferred to an eppendorf tube and place in water bath in 4° C. refrigerator. […] The plate was read in kinetic mode on the Molecular Devices SpectraMax Gemini XS plate reader. […] IC50s were determined using a four parameter curve fit equation, and converted to Ki's using the following Km's: […]
MEASURED PARAMETER: IC50

# annotated cases, reported IC50 shown
{"MOLECULE": "CC(C)(C)OC(=O)N[C@H]1CCCCC/C=C\\[C@@H]2C[C@@]2(C(=O)NS(=O)(=O)C2CC2)NC(=O)[C@@H]2C[C@@H](NC(=O)N3Cc4ccccc4C3)CN2C1=O [AR00304008]", "IC50": "< 100 nM"}
{"MOLECULE": "CC(C)(C)OC(=O)N[C@H]1CCCCC/C=C\\[C@@H]2C[C@@]2(C(=O)NS(=O)(=O)c2ccc(Cl)s2)NC(=O)[C@@H]2C[C@@H](OC(=O)N3Cc4ccc(Cl)cc4C3)CN2C1=O [AR00340173]", "IC50": "< 100 nM"}
{"MOLECULE": "O=C(N[C@H]1CCCCC/C=C\\[C@@H]2C[C@@]2(C(=O)O)NC(=O)[C@@H]2C[C@@H](OC(=O)N3CCc4ccccc4C3)CN2C1=O)OC1CCCC1 [AR00247310]", "IC50": "< 1000 nM"}
{"MOLECULE": "CC(C)(C)CC(=O)N[C@H]1CCCCC/C=C\\[C@@H]2C[C@@]2(C(=O)NS(=O)(=O)C2CC2)NC(=O)[C@@H]2C[C@@H](OC(=O)N3Cc4ccc(Cl)cc4C3)CN2C1=O [AR00334225]", "IC50": "< 100 nM"}
{"MOLECULE": "O=C(NC1CCOC1)N[C@H]1CCCCC/C=C\\[C@@H]2C[C@@]2(C(=O)NS(=O)(=O)C2CC2)NC(=O)[C@@H]2C[C@@H](OC(=O)N3CCc4ccccc4C3)CN2C1=O (stereo partly shown) [AR00320222]", "IC50": "< 100 nM"}

Field: IC50 (NS3-NS4A protease (Hepatitis C virus genotype 1a, UniProt P27958)). Entry: CC(C)(C)NC(=O)N[C@H]1CCCCC/C=C\[C@@H]2C[C@@]2(C(=O)O)NC(=O)[C@@H]2C[C@@H](OC(=O)N3Cc4ccccc4C3)CN2C1=O [AR00320078]
< 100 nM

NS3-NS4A protease (Hepatitis C virus genotype 1a, UniProt P27958) / IC50 / CC(C)(C)CC(=O)N[C@H]1CCCCC/C=C\[C@@H]2C[C@@]2(C(=O)NS(=O)(=O)C2CC2)NC(=O)[C@@H]2C[C@@H](OC(=O)N3Cc4cccc(F)c4C3)CN2C1=O [AR00338070] : value?
< 100 nM

Given the entry CC(C)(C)C(=O)N[C@H]1CCCCC/C=C\[C@@H]2C[C@@]2(C(=O)O)NC(=O)[C@@H]2C[C@@H](OC(=O)N3CCc4ccccc4C3)CN2C1=O [AR00248687] , what IC50 was observed with NS3-NS4A protease (Hepatitis C virus genotype 1a, UniProt P27958)?
< 1000 nM

What is its IC50 for NS3-NS4A protease (Hepatitis C virus genotype 1a, UniProt P27958)? Entry: COCC1c2cccc(F)c2CCN1C(=O)O[C@@H]1C[C@H]2C(=O)N[C@]3(C(=O)O)C[C@H]3/C=C\CCCCC[C@H](NC(=O)OC(C)(C)C)C(=O)N2C1 (stereo partly shown) [AR00365349]
< 1000 nM

Lab note: need IC50 with NS3-NS4A protease (Hepatitis C virus genotype 1a, UniProt P27958) for entry Cc1nc(-c2ccc3c(c2)CN(C(=O)O[C@@H]2C[C@H]4C(=O)N[C@]5(C(=O)NS(=O)(=O)C6CC6)C[C@H]5/C=C\CCCCC[C@H](NC(=O)OC(C)(C)C)C(=O)N4C2)C3)cs1 [AR00364989] , please look it up.
< 100 nM

====

- TESTED TARGET: NS3-NS4A protease (Hepatitis C virus genotype 1a)
- Construct: Recombinant E. coli or Baculovirus full-length NS3 was diluted to 3.33 μM with assay buffer; made in house; host or cells: E. coli or baculovirus (BV) system
- PROTOCOL NOTES: NS3-NS4A protease assay (NS3 inhibition assay, RETS1 substrate), Section B
- Format: biochemical
- Experimental: NS3 complex formation with NS4A-2 Recombinant E. coli or Baculovirus full-length NS3 was diluted to 3.33 μM with assay buffer and the material transferred to an eppendorf tube and place in water bath in 4° C. refrigerator. […] The plate was read in kinetic mode on the Molecular Devices SpectraMax Gemini XS plate reader. […] IC50s were determined using a four parameter curve fit equation, and converted to Ki's using the following Km's: […]
Entries and their measured IC50 follow.

{"COMPOUND": "CC(C)[C@@H](NC(=O)c1cnccn1)C(=O)N[C@H]1CCCCC/C=C\\[C@@H]2C[C@@]2(C(=O)O)NC(=O)[C@@H]2C[C@@H](OC(=O)N3CCc4ccccc4C3)CN2C1=O [AR00301338]", "TESTED TARGET": "NS3-NS4A protease (Hepatitis C virus genotype 1a)", "IC50": "< 0.1 µM"}

What does the data say about its IC50? Entry: O=C(N[C@H](C(=O)N[C@H]1CCCCC/C=C\[C@@H]2C[C@@]2(C(=O)NS(=O)(=O)C2CC2)NC(=O)[C@@H]2C[C@@H](OC(=O)N3Cc4cccc(F)c4C3)CN2C1=O)C1CCCCC1)c1cnccn1 [AR00340303]
< 0.1 µM

Which IC50 reading was recorded for the compound CC(C)[C@@H](NC(=O)OC(C)(C)C)C(=O)N[C@H]1CCCCC/C=C\[C@@H]2C[C@@]2(C(=O)O)NC(=O)[C@@H]2C[C@@H](OC(=O)N3CCc4ccccc4C3)CN2C1=O [AR00298989] ?
< 10 µM
